Settings: buffer; pH 7.4; 200.0 µM
Readings of solubility kinetic for the listed compounds

These recorded examples may help you get a feel for the data.
> print(dat)
                                   compound  experimental.readout        result
1  O=C(Cn1cc([N+](=O)[O-])cn1)NCCc1nc2ccccc2[nH]1    solubility kinetic  > 47.1 µg/mL
2  CC1(C)C(=O)Nc2ccccc2N1C(=O)COc1ccc(C#N)cc1    solubility kinetic    38.1 µg/mL

Problem: I am curious: what solubility kinetic value has been reported for CC1=CC(C)(C)NC(=S)N1c1ccc(C)c(C)c1 ?
Result: 2.1 µg/mL

Problem: I am curious: what solubility kinetic value has been reported for Cc1[nH]c2ccc(C(=O)NCCCN3CCOCC3)cc2c1C ?
Result: > 47.3 µg/mL

Problem: I am curious: what solubility kinetic value has been reported for CC(C)[C@H](NC(=O)NCc1ccc(F)cc1)C(=O)O ?
Result: > 40.2 µg/mL

Problem: I am curious: what solubility kinetic value has been reported for Cl.O=C(CNCc1cccs1)NC12CC3CC(CC(C3)C1)C2 ?
Result: 48.1 µg/mL

Problem: I am curious: what solubility kinetic value has been reported for Cc1cccc(CNCCc2c[nH]c3ccccc23)c1.O=C(O)C(=O)O ?
Result: > 53.2 µg/mL

Problem: I am curious: what solubility kinetic value has been reported for COc1ccccc1C(=O)NC1CCCc2ccccc21 (centres undefined) ?
Result: 33.2 µg/mL

Problem: I am curious: what solubility kinetic value has been reported for Cc1nc(-c2ccc(C(=O)N3CCCC3)cc2)cs1 ?
Result: > 40.9 µg/mL

Problem: I am curious: what solubility kinetic value has been reported for Cc1[nH]c2ccccc2c1C(=O)COC(=O)c1ccc[n+]([O-])c1 ?
Result: 39.7 µg/mL

Problem: I am curious: what solubility kinetic value has been reported for Cc1ccccc1COc1ccc(/C=C(\C#N)C(N)=O)cc1 ?
Result: < 0.3 µg/mL

Problem: I am curious: what solubility kinetic value has been reported for CC(C)CCC(C(=O)O)C(C)CC(=O)NNC(=O)c1ccco1 (centres undefined) ?
Result: > 48.7 µg/mL

Problem: I am curious: what solubility kinetic value has been reported for CC(C)Cn1c(N)c(C(=O)COC(=O)c2ccccc2C(=O)c2ccccc2)c(=O)n(C)c1=O ?
Result: 3.5 µg/mL
